- Experiment: Ratio of drug concentration in brain to plasma in streptozotocin induced diabetic peripheral neuropathic mechanical allodynia in overnight fasted Sprague-Dawley rat at 1 mg/kg, po measured after 5.5 hrs
- Type: ADME, organism-based
Property: Kp at 5.5 h

Smiles Repr	Test Result
CC(C)C[C@](C)(N)COc1ccc(-c2ccnc(C(F)F)c2)cc1C(F)(F)F	11

====

- Measured Target: Broad substrate specificity ATP-binding cassette transporter ABCG2 (Homo sapiens, UniProt Q9UNQ0)
- Sequence (Q9UNQ0 whole entry): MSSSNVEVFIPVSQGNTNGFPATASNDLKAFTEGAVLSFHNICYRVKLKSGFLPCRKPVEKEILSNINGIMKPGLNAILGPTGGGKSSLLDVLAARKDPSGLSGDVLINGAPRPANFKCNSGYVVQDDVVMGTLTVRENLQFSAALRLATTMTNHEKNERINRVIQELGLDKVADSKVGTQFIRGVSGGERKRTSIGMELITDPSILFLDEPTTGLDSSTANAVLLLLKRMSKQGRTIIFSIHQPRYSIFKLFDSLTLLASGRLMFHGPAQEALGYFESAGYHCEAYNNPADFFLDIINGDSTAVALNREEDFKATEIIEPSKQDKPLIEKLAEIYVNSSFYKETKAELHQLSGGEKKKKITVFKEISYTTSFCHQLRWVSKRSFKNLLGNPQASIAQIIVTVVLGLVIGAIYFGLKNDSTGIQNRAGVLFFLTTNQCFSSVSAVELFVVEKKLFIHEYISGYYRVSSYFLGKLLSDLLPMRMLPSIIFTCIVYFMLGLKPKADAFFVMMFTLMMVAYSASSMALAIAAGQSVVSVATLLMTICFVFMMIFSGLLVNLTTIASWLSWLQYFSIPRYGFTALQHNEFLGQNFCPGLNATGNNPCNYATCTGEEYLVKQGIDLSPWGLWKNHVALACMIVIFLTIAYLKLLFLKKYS
- Experiment: Inhibition of BCRP (unknown origin)
Property: IC50 (µM)

Smiles Repr	Property	Test Result
CC(C)C[C@](C)(N)COc1ccc(-c2ccnc(C(F)F)c2)nc1C(F)F	IC50	5.4
